Data provenance: the supplement of paper PMC11219838

- System: Meloidogyne hapla J2
- assayName: proportion of mobile M. hapla J2 relative to DMSO control (fraction of DMSO control); higher = more viable, less nematicidal, active = 0.7 or less
- assayContext: 60 µM; 5 days; temperature: 20 °C
proportion of mobile M. hapla J2 values by entry
Lab note: jot down the number only; don't add units.

In the examples that follow, each entry is paired with its recorded proportion of mobile M. hapla J2.
COc1ccc(-c2nnc(SCC(=O)c3ccc(C)o3)o2)cc1 ... 1
Cn1c(SCc2nc(-c3ccccc3)no2)nnc1-c1ccco1 ... 0.98
CC(=O)Nc1cccc(-c2nnc(SCc3ccccc3)o2)c1 ... 0.976
CC(=O)Nc1ccc(NC(=O)c2ccccc2-c2nc(-c3cccc(C)c3)no2)cc1 ... 1.01
Brc1ccc(CSc2nnc(-c3ccncc3)o2)cc1 ... 1.01

Please supply the value of reported proportion of mobile M. hapla J2 for the item `Cn1cc(C(=O)CSc2nnc(-c3cccc(Cl)c3)o2)c2ccccc21` 0.999

###

- Test system: Meloidogyne hapla J2
- assayName: proportion of mobile M. hapla J2 relative to DMSO control (fraction of DMSO control); higher = more viable, less nematicidal, active = 0.7 or less
- assayContext: 60 µM; 5 days; temperature: 20 °C
endpoint: proportion of mobile M. hapla J2
Output: the number by itself.

Worked set:
Clc1ccc(OCc2nc(-c3ccccc3)no2)c(Cl)c1 ... 0.796
Cc1ccccc1-c1noc(CSc2nc3ccccc3[nH]2)n1 ... 0.918
CCOc1cc(-c2nc(-c3ccccc3C)no2)cc(OCC)c1OCC ... 0.821
O=C(CSc1nnc(-c2ccccc2Cl)o1)Nc1nccs1 ... 0.992
Cc1cccc(-c2noc(-c3ccc(C)c(Cl)c3)n2)c1 ... 1.01
COc1ccc(OC(C)c2nc(-c3ccccn3)no2)cc1 (stereo unspecified) ... 1.03
CCOc1ccc(-c2noc(-c3ccncc3)n2)cc1OC ... 1
Clc1ccc(SCc2nc(-c3ccccn3)no2)cc1 ... 0.0259

Consider the compound `CC(C)Oc1cccc(-c2nc(-c3ccccn3)no2)c1` tested on Meloidogyne hapla J2; state its proportion of mobile M. hapla J2. 1.01

Print Meloidogyne hapla J2 proportion of mobile M. hapla J2 for `CCCOc1ccc(-c2ccc(-c3nc(-c4cccnc4)no3)cc2)cc1` . 1.02

Provide proportion of mobile M. hapla J2, system Meloidogyne hapla J2, entry `CC(C)(Oc1ccc(Cl)cc1)c1nc(-c2ccncc2)no1` 0.91

###

- Tested on: Meloidogyne hapla J2
- assayName: proportion of mobile M. hapla J2 relative to DMSO control (fraction of DMSO control); higher = more viable, less nematicidal, active = 0.7 or less
- assayContext: 60 µM; 5 days; temperature: 20 °C
Respond only with the outcome that fits, drawn from TRUE = active, FALSE = inactive

Known results for molecules:
COc1cccc(-c2nnc(SCc3ccccc3C)o2)c1 ... FALSE
Brc1ccc(CSc2nnc(-c3ccco3)o2)cc1 ... FALSE

Query: recorded result category for `Cc1nnc(CSc2nnc(-c3ccc(Cl)cc3)o2)o1` in this test FALSE

# lookup: test call for `Fc1ccc(-c2noc(-c3ccc(F)cc3)n2)cc1` FALSE

###

- System: Meloidogyne hapla J2
- assayName: proportion of mobile M. hapla J2 relative to DMSO control (fraction of DMSO control); higher = more viable, less nematicidal, active = 0.7 or less
- assayContext: 60 µM; 5 days; temperature: 20 °C
Here, each record is paired with measured proportion of mobile M. hapla J2 data.
Could you respond with only the numeric value?

COc1ccc(-c2noc(-c3cccc(Cl)c3)n2)cc1 ... 0.819
Cc1cc(OCc2nc(-c3ccccn3)no2)c(C)cc1Br ... 0.711
COc1ccc(Cl)cc1-c1noc(-c2ccccc2)n1 ... 1.02
COc1cccc(NC(=O)c2ccccc2-c2nc(-c3ccc(F)cc3)no2)c1 ... 0.822
Brc1cccc(-c2nc(-c3cccnc3)no2)c1 ... 1.01

The record that follows has no proportion of mobile M. hapla J2 shown yet.
Find the measured proportion of mobile M. hapla J2 of `COc1nc(-c2ccccc2)ccc1-c1noc(C(C)C)n1` and report it. 0.776
